# credit: patent US10760052B2

# study.system: mu opiate receptor (MOR) (Rattus norvegicus, UniProt P33535)
# Construct: from tissue; host or cells: striatum (membrane preparation)
# Sequence (P33535 whole entry): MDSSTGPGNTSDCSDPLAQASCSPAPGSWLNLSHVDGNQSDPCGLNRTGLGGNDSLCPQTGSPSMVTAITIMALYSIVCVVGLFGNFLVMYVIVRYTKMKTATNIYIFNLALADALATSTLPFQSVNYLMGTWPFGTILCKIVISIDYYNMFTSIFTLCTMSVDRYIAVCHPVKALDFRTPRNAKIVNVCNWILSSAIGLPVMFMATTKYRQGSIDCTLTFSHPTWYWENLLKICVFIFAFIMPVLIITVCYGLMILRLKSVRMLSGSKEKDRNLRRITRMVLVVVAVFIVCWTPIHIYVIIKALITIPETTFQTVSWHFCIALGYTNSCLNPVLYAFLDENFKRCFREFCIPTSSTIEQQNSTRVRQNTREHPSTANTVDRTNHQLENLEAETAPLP
# Format: biochemical
endpoint.name: % DAMGO (1 μM) (%)
Just the number please, in %, no unit attached.

State its % DAMGO (1 μM) on mu opiate receptor (MOR) (Rattus norvegicus, UniProt P33535): COc1ccc(S(=O)(=O)N2CCOC23CCN(C(=O)OC(C)(C)C)CC3)cc1 110.9

Also check CC(=O)c1ccc(S(=O)(=O)N2CCOC23CCNCC3)cc1 211.5

Also check CC1CN(CC(O)COc2ccccc2Br)CC(C)O1 (stereo not shown) 81.1

Also check COc1ccc(S(=O)(=O)N2CCC3(CC2)OCCN3S(=O)(=O)c2ccc(C(C)=O)cc2)cc1 105.3

----------
What Concentration of FLNA-Binding Compound as Agonist 1 μM was measured for each of the following?
# study.system: mu opiate receptor (MOR) (Rattus norvegicus, UniProt P33535)
# Construct: from tissue; host or cells: striatum (membrane preparation)
# Type: biochemical
# condition.summary: [35S]GTPγS binding to Gαo in striatal membranes; compound 1 μM
Just the number please, in %, no unit attached.

Name the reported Concentration of FLNA-Binding Compound as Agonist 1 μM value associated with the molecule Cc1ccccc1S(=O)(=O)N1CCC2(CC1)OCCN2S(=O)(=O)c1ccccc1C 204.7

Also check COc1c2c(cc3c1C(CC(=O)c1ccc(C#N)cc1)[N+](C)(C)CC3)OCO2 (centres unmarked) 202.3

Also check COc1ccc(C(=O)N2CCOC23CCN(S(=O)(=O)c2ccc(OC)cc2)CC3)cc1 176.6

Also check COc1ccc(NC(=O)N2CCC3(CC2)OCCN3C(=O)Nc2ccc(OC)cc2)cc1 [Compound C0151M] 397.6

Also check CC(O)c1ccc(S(=O)(=O)N2CCC3(CC2)OCCN3S(=O)(=O)c2ccc(C(C)O)cc2)cc1 (centres unmarked) 170.4

Also check COc1ccc(S(=O)(=O)N2CCC3(CC2)OCCN3S(=O)(=O)c2ccc(OC)cc2)cc1 308.2

Also check COc1ccc(C(=O)CC2c3c(cc4c(c3OC)OCO4)CC[N+]2(C)C)cc1C (centres unmarked) 256.4

Also check COc1ccc(CCCCC2c3c(cc4c(c3OC)OCO4)CC[N+]2(C)C)cc1 (centres unmarked) 288.8

Also check CC(=O)c1ccc(S(=O)(=O)N2CCC3(CC2)NC(=O)CN3S(=O)(=O)c2ccc(C(C)=O)cc2)cc1 349.6

Also check CC1CN(CC(O)COc2ccccc2Br)CC(C)O1 (centres unmarked) 223.8

Also check COc1ccc(S(=O)(=O)N2CCCC3(C2)OCCN3S(=O)(=O)c2ccc(OC)cc2)cc1 (centres unmarked) [Compound C0145M] 289.2

Also check CC(=O)c1ccc(C(=O)N2CCC3(CC2)OCCN3C(=O)c2ccc(C(C)=O)cc2)cc1 127.0

Also check CC1CCC(C(C)C)C(OCC(O)CN2CCCc3ccccc32)C1 (centres unmarked) 110.4

Also check COc1ccc(CCC(=O)CC2c3c(cc4c(c3OC)OCO4)CC[N+]2(C)C)cc1OC (centres unmarked) 107.5

Also check COc1c2c(cc3c1C(CC(=O)c1ccc(O)c(C)c1)[N+](C)(C)CC3)OCO2 (centres unmarked) 219.0

Also check CC(=O)c1ccc(C(=O)N2CCOC23CCN(S(=O)(=O)c2ccc(C(C)=O)cc2)CC3)cc1 157.2

Also check CC1CN(CC(O)COc2ccc(Br)c(Cl)c2)CC(C)O1 (centres unmarked) 274.2

----------
# study.system: mu opiate receptor (MOR) (Rattus norvegicus, UniProt P33535)
# Construct: from tissue; host or cells: striatum (membrane preparation)
# Assay type: biochemical
endpoint.name: % DAMGO (1 μM) (%)
Just the number please, in %, no unit attached.

State its % DAMGO (1 μM) on mu opiate receptor (MOR) (Rattus norvegicus, UniProt P33535): COc1ccc(S(=O)(=O)N2CCC3(CC2)OCCN3S(=O)(=O)c2ccc(OC)c(OC)c2)cc1OC 90.1

Also check CS(=O)(=O)c1ccc(S(=O)(=O)N2CCC3(CC2)OCCN3S(=O)(=O)c2ccc(S(C)(=O)=O)cc2)cc1 92.6

Also check CC1CN(CC(O)COc2ccc(Cl)cc2)CC(C)O1 (stereo not shown) 92.4

Also check Nc1ccc(C(=O)N2CCC3(CC2)OCCN3S(=O)(=O)c2ccc(N)cc2)cc1 87.6

----------
# study.system: mu opiate receptor (MOR) (Rattus norvegicus)
# Construct: from tissue; host or cells: striatum (membrane preparation)
# Format: biochemical
# condition.summary: [35S]GTPγS binding to Gαo in striatal membranes; compound 1 μM
endpoint.name: Concentration of FLNA-Binding Compound as Agonist 1 μM (%)
Just the number please, in %, no unit attached.

Name the reported Concentration of FLNA-Binding Compound as Agonist 1 μM value associated with the compound O=S(=O)(c1ccc(C(F)(F)F)cc1)N1CCC2(CC1)OCCN2S(=O)(=O)c1ccc(C(F)(F)F)cc1 [Compound C0012] 224.8

Also check O=S(=O)(c1ccc(Br)cc1C(F)(F)F)N1CCC2(CC1)OCCN2S(=O)(=O)c1ccc(Br)cc1C(F)(F)F [Compound C0068] 263.1

Also check COc1ccc(OCC(O)CN2CCOc3ccccc32)cc1 (stereo not drawn) [Compound A0076] 172.6

Also check COc1c2c(cc3c1C(CC(=O)c1ccc(F)c(F)c1)[N+](C)(C)CC3)OCO2 (stereo not drawn) [Compound B0003] 131.1

Also check O=S(=O)(c1ccc(Cl)cc1)N1CCC2(CC1)OCCN2S(=O)(=O)c1ccc(Cl)cc1 [Compound C0067] 179.0

Also check CC1CCC(C(C)C)C(OCC(O)CN2CCCCCC2)C1 (stereo not drawn) [Compound A0013] 164.8
